This section presents compounds with their documented activation (% of full agonist control) values.
- targetDesc: Peroxisome proliferator-activated receptor gamma (Homo sapiens)
- testDetails: partial agonism at human PPARgamma receptor – cell-based, luciferase reporter, luminescence, primary screen (AID 504452);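 note: Cos-1 cells carrying PPARgamma and a response element luciferase reporter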
- condition: cell-based PPARg luciferase reporter, at 5 µM, stronger effect = higher value; measured here: relative to full agonist control

compound	targetDesc	activation (% of full agonist control) (%)
Cc1nc2ncccn2c1-c1csc(Nc2cccc(C(=O)O)c2)n1	Peroxisome proliferator-activated receptor gamma (Homo sapiens)	33.5
CCOc1ccc(CN2CCN(Cc3cccc4nonc34)CC2CCO)cc1 (stereo not given)	Peroxisome proliferator-activated receptor gamma (Homo sapiens)	44.9
Cc1cc(C)c2nc(N3C(=O)C(O)=C(C(=O)c4ccco4)C3c3ccc(O)cc3)sc2c1 (stereo not given)	Peroxisome proliferator-activated receptor gamma (Homo sapiens)	40.2
O=C(NCC(c1ccco1)N1CCc2ccccc2C1)c1cccc(F)c1 (stereo not given)	Peroxisome proliferator-activated receptor gamma (Homo sapiens)	33.4
O=C(c1cc2n(n1)C(C(F)(F)F)CC(c1ccco1)N2)N1CCc2ccccc2C1 (stereo not given)	Peroxisome proliferator-activated receptor gamma (Homo sapiens)	37.2

* * *

- targetDesc: Peroxisome proliferator-activated receptor gamma (Homo sapiens) (UniProt P37231)
- Sequence (P37231 whole entry, looked up): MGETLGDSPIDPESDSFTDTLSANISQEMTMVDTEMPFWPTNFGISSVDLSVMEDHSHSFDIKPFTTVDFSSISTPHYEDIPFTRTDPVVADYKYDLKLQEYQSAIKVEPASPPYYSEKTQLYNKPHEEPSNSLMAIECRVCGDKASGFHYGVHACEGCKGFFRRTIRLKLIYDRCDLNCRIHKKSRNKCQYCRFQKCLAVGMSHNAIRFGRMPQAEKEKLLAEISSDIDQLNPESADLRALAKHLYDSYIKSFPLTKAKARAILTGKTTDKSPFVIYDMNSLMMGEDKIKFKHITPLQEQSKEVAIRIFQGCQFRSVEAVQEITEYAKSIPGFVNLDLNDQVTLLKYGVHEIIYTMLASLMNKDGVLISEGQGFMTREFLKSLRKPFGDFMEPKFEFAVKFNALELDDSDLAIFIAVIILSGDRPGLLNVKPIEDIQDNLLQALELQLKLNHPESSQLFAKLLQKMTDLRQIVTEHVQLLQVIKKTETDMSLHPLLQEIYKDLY
- testDetails: partial agonism at human PPARgamma receptor – cell-based, luciferase reporter, luminescence, primary screen (AID 504452);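 note: Cos-1 cells carrying PPARgamma and a response element luciferase reporter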
- condition: cell-based PPARg luciferase reporter, at 5 µM, stronger effect = higher value; measured here: relative to full agonist control
Lab note: anything with activation (% of full agonist control) at or over 40% counts as Fulfilled; the rest go in Not fulfilled.

compound	className
O=C(NCCCn1ccnc1)C(=O)NCC(c1ccco1)N1CCN(c2ccccc2)CC1 (stereo not given)	Not fulfilled
CC(=O)N1N=C(c2ccccc2)CC1c1cn(Cc2ccccc2)c2ccccc12 (stereo not given)	Fulfilled
COc1ccc(CN2CCN(Cc3ccc(C)cc3)C(CCO)C2)cc1OC (stereo not given)	Not fulfilled
CCOc1cccc(/C(O)=C2/C(=O)C(=O)N(Cc3cccnc3)C2c2ccco2)c1 (stereo not given)	Not fulfilled
CN1CCN(S(=O)(=O)c2ccc(Sc3nc4ccccc4[nH]3)c3nsnc23)CC1	Fulfilled
Cc1c(CNCCC2=CCCCC2)c(C(=O)O)c(C)n1Cc1ccccc1	Not fulfilled
O=C1CC(N2CCN(Cc3ccc4c(c3)OCO4)CC2)C(=O)N1Cc1ccc(N2CCCC2=O)cc1 (stereo not given)	Fulfilled
Cc1cccc(NC(=O)CN2C(=O)/C(=C3\SC(=S)N(CC4CCCO4)C3=O)c3ccccc32)c1 (stereo not given)	Fulfilled

* * *

- targetDesc: Peroxisome proliferator-activated receptor gamma (Homo sapiens) (UniProt P37231)
- testDetails: partial agonism at human PPARgamma receptor – cell-based, luciferase reporter, luminescence, primary screen (AID 504452);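 note: Cos-1 cells carrying PPARgamma and a response element luciferase reporter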
- condition: cell-based PPARg luciferase reporter, at 5 µM, stronger effect = higher value; measured here: relative to full agonist control
// reported activation (% of full agonist control) for each item listed
measurementLabel: activation (% of full agonist control) (%)

compound	measurementLabel	observedResult
O=C(OCC1OC(Oc2ccc(O)cc2)C(O)C(O)C1O)c1ccccc1 (stereo not given)	activation (% of full agonist control)	9.83
O=C(NC(Cc1ccccc1)C(=O)O)/C(=C/c1ccc(Cl)cc1)NC(=O)c1ccco1 (stereo not given)	activation (% of full agonist control)	24.4
O=S(=O)(NCC(c1ccc2c(c1)OCO2)N1CCOCC1)c1ccc(F)cc1 (stereo not given)	activation (% of full agonist control)	35.4
C[C@H](NC(=O)c1nc[nH]c1C(=O)N1CCc2ccccc2C1)C(=O)OCc1ccccc1	activation (% of full agonist control)	29.5
COc1ccc(-c2ccc(CCC(=O)O)n2CC(=O)Nc2ccccc2C)cc1	activation (% of full agonist control)	35.1
O=C(CN1c2cccc3cccc(c23)S1(=O)=O)N1CCN(c2ccc(F)cc2)CC1	activation (% of full agonist control)	34.1
COc1cccc(C2/C(=C(/O)c3ccccc3)C(=O)C(=O)N2Cc2ccco2)c1 (stereo not given)	activation (% of full agonist control)	35.3
Cc1ccc(S(C)=O)cc1-n1c(=O)n(Cc2ccccc2)c(=O)c2[nH]cnc21 (stereo not given)	activation (% of full agonist control)	12.8
CCOC(=O)/C=c1\s/c(=C\c2ccc3cc(OC)ccc3c2)c(=O)n1CC(=O)NCC1CCCO1 (stereo not given)	activation (% of full agonist control)	28.6
COc1ccc(CNC(=O)Cn2c(=O)n(CCC(=O)N3CCCCC3)c(=O)c3sccc32)cc1	activation (% of full agonist control)	46.4
CCC(=O)Nc1nonc1-c1nc2ccccc2n1Cc1cccc2ccccc12	activation (% of full agonist control)	25.1
O=C(C1=C(O)C(=O)N(CCN2CCOCC2)C1c1ccc(Cl)cc1)c1cc2ccccc2o1 (stereo not given)	activation (% of full agonist control)	37.3
Cc1c(-n2cc(C(=O)c3cc(F)ccc3O)cc(C#N)c2=O)c(=O)n(-c2ccccc2)n1C	activation (% of full agonist control)	43.7
CCOc1cccc(/C(O)=C2/C(=O)C(=O)N(Cc3ccco3)C2c2ccncc2)c1 (stereo not given)	activation (% of full agonist control)	41.1
CCOc1cccc(/C(O)=C2/C(=O)C(=O)N(CCN3CCOCC3)C2c2ccncc2)c1 (stereo not given)	activation (% of full agonist control)	41.3
COc1ccc2c(c1)c(=O)c(C(=O)c1ccc(Cl)cc1)cn2CC(=O)Nc1ccc(F)cc1	activation (% of full agonist control)	32
S=C(NCCc1ccccc1)N1CCn2cccc2C1c1ccncc1 (stereo not given)	activation (% of full agonist control)	44.2
COc1ccc(/C(O)=C2/C(=O)C(=O)N(Cc3ccco3)C2c2cccs2)cc1 (stereo not given)	activation (% of full agonist control)	32.1
COc1ccccc1NC(=O)C(=O)c1cn(CC(=O)N2CCOCC2)c2ccccc12	activation (% of full agonist control)	42.3
Cc1cccc(N2CCN(C(=O)c3cccc(N4C(=O)C5CC=CC(C)C5C4=O)c3)CC2)c1C (stereo not given)	activation (% of full agonist control)	16.4
